System: Hep G2 cells
PROCEDURE SUMMARY: In vitro expression: luciferase activity in Hep G2 cells transfected with RNA-LNPs
Type: cell-based
DETAILS: Formulation No. 010, RNA No. 331 (firefly-luciferase), 100 ng/mL RNA-LNPs, 72 hours post transfection
In vitro Expression (Mean) values by entry
Enter a number only.

MOLECULE	In vitro Expression (Mean)
CCCCC/C=C\C/C=C\CCCCCCCC(=O)NC(COC(=O)NCCN1CCCCC1)C(=O)OCCCCCC(=O)OCC(CCCCCCCC)CCCCCCCCCC (stereo not drawn)	4.71E+05
CCCCCCCC/C=C\CCCCCCCC(=O)NC(COC(=O)NCCN1CCCCC1)C(=O)OCCCCCCCCOC(=O)C(CCCCCC)CCCCCCCC (stereo not drawn)	3.61E+05
CCCCC/C=C\C/C=C\CCCCCCCC(=O)N[C@@H](COC(=O)NCCN1CCCCC1)C(=O)OCCCCCCCC(=O)OC(CCCCCCCC)CCCCCCCC	6.24E+05
CCCCC/C=C\C/C=C\CCCCCCCC(=O)NC(COC(=O)NCCN1CCCCCC1)C(=O)OCCCCCCCC(=O)OC(CCCCCCCC)CCCCCCCC (stereo not drawn)	5.74E+05
CCCCC/C=C\C/C=C\CCCCCCCC(=O)N[C@H](COC(=O)NCCN1CCCCCC1)C(=O)OCCCCCC(=O)OC(CCCCCCCC)CCCCCCCC	7.72E+05

Here is the next item to consider.
Asked: Provide In vitro Expression (Mean), system Hep G2 cells, entry CCCCC/C=C\C/C=C\CCCCCCCC(=O)NC(COC(=O)NCCN1CCCCCC1)C(=O)OCCCCCC(=O)OCC(CCCCCCCC)CCCCCCCCCC (stereo not drawn)
Given back: 3.44E+05
